The reported measurements were obtained from paper PMC5725665.

biological target: KDM2A (Homo sapiens, UniProt Q9Y2K7); construct: isolated enzyme; assay: biochemical; parameters: RapidFire MS histone peptide demethylation assay; conditions: read-out: KDM2A RapidFire pIC50 (converted)
Sequence (Q9Y2K7 1-517 limits assumed): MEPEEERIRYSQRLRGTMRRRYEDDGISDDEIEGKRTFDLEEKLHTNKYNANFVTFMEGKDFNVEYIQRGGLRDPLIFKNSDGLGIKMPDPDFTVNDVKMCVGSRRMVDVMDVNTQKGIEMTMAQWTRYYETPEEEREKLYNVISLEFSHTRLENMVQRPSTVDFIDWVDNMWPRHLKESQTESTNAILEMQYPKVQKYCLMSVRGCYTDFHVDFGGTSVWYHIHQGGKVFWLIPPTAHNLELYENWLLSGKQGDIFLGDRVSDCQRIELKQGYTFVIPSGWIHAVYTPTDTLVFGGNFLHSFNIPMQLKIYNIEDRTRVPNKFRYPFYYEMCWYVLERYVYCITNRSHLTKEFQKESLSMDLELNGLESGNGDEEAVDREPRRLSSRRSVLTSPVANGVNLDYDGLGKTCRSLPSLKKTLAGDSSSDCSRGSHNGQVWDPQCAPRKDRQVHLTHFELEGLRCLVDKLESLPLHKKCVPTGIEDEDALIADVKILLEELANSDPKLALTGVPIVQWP
The entries below come with measured IC50 values attached.
Please state the figure in µM; there is no need to write the unit.

# compound, attribute measured, quantitative result
measured = [
    ("CC(=O)N1c2ccccc2[C@](C#N)(c2ccccc2)[C@H]1c1cccc(OCCCCCCCN2CCCC2)c1 (racemic)", "IC50", 0.893),
]

Alright, here's another compound for you.
IC50 in this record for CC(=O)N1c2ccccc2[C@](C#N)(c2ccccc2)[C@H]1c1cccc(OCCCCCCCCN2CCCC2)c1 (racemic) : 1.38

###

Molecular target: KDM7A (Homo sapiens)
Construct: isolated enzyme
Sequence (Q6ZMT4 1-941): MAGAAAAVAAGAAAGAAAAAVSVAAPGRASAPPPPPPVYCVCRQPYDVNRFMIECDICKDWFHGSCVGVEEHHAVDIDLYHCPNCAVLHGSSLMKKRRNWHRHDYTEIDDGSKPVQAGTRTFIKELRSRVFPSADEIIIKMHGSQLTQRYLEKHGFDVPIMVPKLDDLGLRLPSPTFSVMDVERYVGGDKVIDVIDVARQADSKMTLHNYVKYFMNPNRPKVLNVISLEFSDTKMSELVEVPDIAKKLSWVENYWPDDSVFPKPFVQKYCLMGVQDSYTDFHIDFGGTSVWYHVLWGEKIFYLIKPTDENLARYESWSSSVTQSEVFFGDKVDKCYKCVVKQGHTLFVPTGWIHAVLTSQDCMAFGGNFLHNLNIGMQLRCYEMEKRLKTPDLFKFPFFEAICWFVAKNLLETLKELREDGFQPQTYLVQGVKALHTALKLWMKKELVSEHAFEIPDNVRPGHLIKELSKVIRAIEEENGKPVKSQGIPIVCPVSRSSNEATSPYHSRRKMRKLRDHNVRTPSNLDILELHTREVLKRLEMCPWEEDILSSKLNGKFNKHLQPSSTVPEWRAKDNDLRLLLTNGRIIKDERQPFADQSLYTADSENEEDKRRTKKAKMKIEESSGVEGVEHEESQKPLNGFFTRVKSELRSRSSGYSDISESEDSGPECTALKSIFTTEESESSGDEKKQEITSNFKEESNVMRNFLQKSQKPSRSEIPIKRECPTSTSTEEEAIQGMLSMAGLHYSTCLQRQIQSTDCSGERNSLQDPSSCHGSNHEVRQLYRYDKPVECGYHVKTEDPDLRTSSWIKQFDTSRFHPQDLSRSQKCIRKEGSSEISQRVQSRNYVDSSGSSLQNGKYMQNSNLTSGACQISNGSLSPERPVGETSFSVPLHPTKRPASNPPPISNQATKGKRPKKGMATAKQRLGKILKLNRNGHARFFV
Test: AlphaScreen demethylase assay
attribute measured: pIC50
Hey, just a heads up that pIC50 is the negative log base 10 of the concentration in molar.

# compound CC(=O)N1c2ccccc2[C@@](C#N)(c2ccccc2)[C@@H]1c1cncc(CCCCCCCN2CCCC2)c1 [(S,S)-6] ; its pIC50 = 6.72

###

target: JARID1A (KDM5A) (Homo sapiens); assay: biochemical; design: AlphaScreen histone demethylase activity assay
Sequence (P29375 whole entry): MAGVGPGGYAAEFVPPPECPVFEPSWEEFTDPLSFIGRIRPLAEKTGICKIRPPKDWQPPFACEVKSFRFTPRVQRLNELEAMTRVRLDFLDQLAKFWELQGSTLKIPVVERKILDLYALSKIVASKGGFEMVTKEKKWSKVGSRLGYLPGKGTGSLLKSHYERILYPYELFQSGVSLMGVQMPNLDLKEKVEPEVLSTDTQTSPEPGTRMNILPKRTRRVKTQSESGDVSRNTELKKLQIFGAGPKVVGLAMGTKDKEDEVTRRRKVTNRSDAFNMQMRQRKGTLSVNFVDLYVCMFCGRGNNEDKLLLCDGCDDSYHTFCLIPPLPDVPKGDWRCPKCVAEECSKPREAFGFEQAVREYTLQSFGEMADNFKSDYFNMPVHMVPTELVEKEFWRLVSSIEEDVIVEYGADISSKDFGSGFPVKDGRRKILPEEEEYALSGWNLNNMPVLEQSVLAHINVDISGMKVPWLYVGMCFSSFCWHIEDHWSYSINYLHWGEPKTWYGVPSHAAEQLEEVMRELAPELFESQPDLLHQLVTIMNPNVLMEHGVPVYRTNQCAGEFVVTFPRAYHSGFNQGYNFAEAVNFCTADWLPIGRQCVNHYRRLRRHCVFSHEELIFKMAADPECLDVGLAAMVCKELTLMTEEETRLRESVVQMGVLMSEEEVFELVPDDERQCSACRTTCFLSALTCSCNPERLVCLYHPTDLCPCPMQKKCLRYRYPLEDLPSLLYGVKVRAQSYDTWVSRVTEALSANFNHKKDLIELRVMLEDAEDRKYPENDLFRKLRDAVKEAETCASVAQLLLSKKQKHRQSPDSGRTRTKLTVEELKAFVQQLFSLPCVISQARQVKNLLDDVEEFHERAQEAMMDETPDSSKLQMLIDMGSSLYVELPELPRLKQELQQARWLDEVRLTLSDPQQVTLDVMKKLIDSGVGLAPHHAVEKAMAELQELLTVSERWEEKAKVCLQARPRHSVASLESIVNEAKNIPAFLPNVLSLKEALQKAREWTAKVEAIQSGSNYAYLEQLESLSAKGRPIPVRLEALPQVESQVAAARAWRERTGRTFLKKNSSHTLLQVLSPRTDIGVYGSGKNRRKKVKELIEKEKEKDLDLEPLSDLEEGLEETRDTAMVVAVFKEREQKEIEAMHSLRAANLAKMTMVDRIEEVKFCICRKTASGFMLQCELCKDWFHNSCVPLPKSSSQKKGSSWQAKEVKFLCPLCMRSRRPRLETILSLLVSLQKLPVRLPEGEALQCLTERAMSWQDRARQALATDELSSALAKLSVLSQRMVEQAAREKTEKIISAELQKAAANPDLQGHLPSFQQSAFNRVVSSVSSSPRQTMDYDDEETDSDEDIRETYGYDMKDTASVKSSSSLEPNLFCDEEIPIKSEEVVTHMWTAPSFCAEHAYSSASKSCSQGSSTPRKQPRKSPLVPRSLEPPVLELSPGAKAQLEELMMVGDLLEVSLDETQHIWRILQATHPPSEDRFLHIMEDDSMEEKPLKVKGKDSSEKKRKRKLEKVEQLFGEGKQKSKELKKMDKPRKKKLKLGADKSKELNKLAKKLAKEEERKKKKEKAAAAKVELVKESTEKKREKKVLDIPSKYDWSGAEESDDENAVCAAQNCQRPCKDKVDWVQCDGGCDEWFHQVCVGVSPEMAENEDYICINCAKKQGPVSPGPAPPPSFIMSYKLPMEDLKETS
The reader will find reported inhibition at 50 µM values listed item by item below.
Reply with just the number (in %).

Examples from the recorded data:
# compound, target under test, quantity unit, inhibition at 50 µM
data = [
    ("CC(=O)N1c2ccccc2[C@](C#N)(c2ccccc2)[C@H]1c1ccc(C#CCCCCCN2CCCC2)o1 (relative stereo)", "JARID1A (KDM5A) (Homo sapiens)", "%", 49.1),
    ("CC(=O)N1c2ccccc2C(C#N)(c2ccccc2)C1c1cc(CCCCCCCN2CCCC2)co1 (stereo not shown)", "JARID1A (KDM5A) (Homo sapiens)", "%", 23),
    ("CCOC(=O)C1(C#N)c2ccccc2N(C(C)=O)C1c1cncc(C=CCCCCCN2CCCC2)c1 (stereo not shown)", "JARID1A (KDM5A) (Homo sapiens)", "%", 20),
    ("CC(=O)N1c2ccccc2[C@@](C#N)(c2ccccc2)[C@@H]1c1cncc(CCCCCCCN2CCCC2)c1 [(S,S)-6]", "JARID1A (KDM5A) (Homo sapiens)", "%", -20.3),
    ("CC(=O)N1c2ccccc2C(C#N)(c2ccccc2)C1c1cncc(C#CCCCCCN2CCCC2)c1 (stereo not shown)", "JARID1A (KDM5A) (Homo sapiens)", "%", 30.9),
    ("CC(=O)N1c2ccccc2[C@@](C#N)(c2ccccc2)[C@H]1c1cncc(OCCCCCCCN2CCCC2)c1 (racemic)", "JARID1A (KDM5A) (Homo sapiens)", "%", 36.7),
]

Continue with the next compound.
# lookup: CC(=O)N1c2ccccc2C(C#N)(c2ccccc2)C1c1ccc(CCCCCCCN2CCCC2)o1 (stereo not shown) on JARID1A (KDM5A) (Homo sapiens), inhibition at 50 µM = 46.6
